B1: glmS ribozyme (parent)
chain: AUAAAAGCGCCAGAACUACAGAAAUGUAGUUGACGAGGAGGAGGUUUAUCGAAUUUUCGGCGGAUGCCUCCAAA

variants of: B1; test: self-cleavage kobs at 640 uM GlcN6P; higher = faster cleavage; RNA array; conditions: with glucosamine-6-phosphate
Variants at the floor of the assay were thinned out.
Below, each of the variants is paired with its reported self-cleavage kobs at 640 uM GlcN6P value.

Known self-cleavage kobs at 640 uM GlcN6P results, listed for orientation:
{"chain": "AUAAAAGCGCCCGAACUACAGAAAUGUAGUUGACGAGGAGGAGGUUUAUCGAAUUUUCGGCGCAUCCCUCCAAA [A12C G63C G66C]", "self-cleavage kobs at 640 uM GlcN6P": "< 1e-05 s⁻¹"}
{"chain": "AUAAAAGCGCCAGAACUACAGAAAUGUAGUAGACGAGGAGGCGGUUUAUCGAAUUUUCGGCGGAUGCCUGCAAA [U31A A42C C70G]", "self-cleavage kobs at 640 uM GlcN6P": "< 1e-05 s⁻¹"}
{"chain": "AUAAACGCACCAGAACUACAGAAAUGUAGUUGACGAGGAGGAGGAUUAUCGAAUUUUCGGCGGAUGCCUCCAAA [A6C G9A U45A]", "self-cleavage kobs at 640 uM GlcN6P": "< 1e-05 s⁻¹"}

// self-cleavage kobs at 640 uM GlcN6P lookup, variant = AUAAAAGCCCCAGAACUACAGAAAUGUAGUUGACGAGGAGGAGUUUUAUCGAAUUUUCGGCGGAUGCCUCCAAA [G9C G44U] , result: < 1e-05 s⁻¹

// self-cleavage kobs at 640 uM GlcN6P lookup, variant = AUAAAAGCGCCAGACCUACAGAAAUGUAGUUGAAGAGGAGGAGUUUUAUCGAAUUUUCGGCGGAUGCCUCCAAA [A15C C34A G44U] , result: < 1e-05 s⁻¹

// self-cleavage kobs at 640 uM GlcN6P lookup, variant = AUAAAAGAGCCAGAACUACAGAAAUGUAGUUGACGAGGAGGAGGUUUAUCGAAUUUUCGGUGGCUGUCUCCAAA [C8A C61U A64C C67U] , result: < 1e-05 s⁻¹

// self-cleavage kobs at 640 uM GlcN6P lookup, variant = AUAAAAGUGCCAGAACUACAGAAAUGUAGUUGACGAGGAGCAGGUUUAUCGAAUUUUCGGCUGAUGCUUCCAAA [C8U G41C G62U C68U] , result: < 1e-05 s⁻¹

// self-cleavage kobs at 640 uM GlcN6P lookup, variant = AUAAAAGCGCCACGACUACAGAAAUGUAGUUAACGAGGAGGAGGUUUAUCGAAUUUUCGGCGGAUGCCUCCAAA [G13C A14G G32A] , result: 0.00264 s⁻¹
